# Target desc: Transient receptor potential cation channel subfamily V member 1 (Rattus norvegicus)
# Sequence (O35433 whole entry): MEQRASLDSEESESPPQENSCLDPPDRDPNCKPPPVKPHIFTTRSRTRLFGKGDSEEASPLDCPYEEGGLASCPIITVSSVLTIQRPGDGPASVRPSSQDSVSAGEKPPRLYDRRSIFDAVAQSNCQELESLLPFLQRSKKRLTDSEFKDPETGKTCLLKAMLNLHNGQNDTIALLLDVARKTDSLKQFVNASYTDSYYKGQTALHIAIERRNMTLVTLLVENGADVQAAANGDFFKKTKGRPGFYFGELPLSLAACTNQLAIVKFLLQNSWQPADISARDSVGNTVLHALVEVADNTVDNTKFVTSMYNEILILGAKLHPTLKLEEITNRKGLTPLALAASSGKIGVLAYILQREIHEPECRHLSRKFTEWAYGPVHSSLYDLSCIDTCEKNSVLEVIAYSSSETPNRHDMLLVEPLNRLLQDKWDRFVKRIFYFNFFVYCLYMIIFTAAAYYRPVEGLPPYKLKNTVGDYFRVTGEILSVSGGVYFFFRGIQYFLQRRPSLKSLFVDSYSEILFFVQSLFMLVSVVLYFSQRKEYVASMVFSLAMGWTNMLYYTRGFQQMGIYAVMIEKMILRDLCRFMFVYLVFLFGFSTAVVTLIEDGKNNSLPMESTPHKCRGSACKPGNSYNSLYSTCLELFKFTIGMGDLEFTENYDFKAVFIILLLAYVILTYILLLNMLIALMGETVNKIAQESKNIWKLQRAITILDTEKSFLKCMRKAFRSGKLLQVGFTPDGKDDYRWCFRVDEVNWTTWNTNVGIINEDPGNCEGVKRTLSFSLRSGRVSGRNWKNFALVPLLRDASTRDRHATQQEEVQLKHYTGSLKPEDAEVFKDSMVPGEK
# Protocol details: Antagonist activity at rat TRPV1 expressed in CHO cells assessed as inhibition of capsaicin-induced calcium influx
# Assay type: functional, cell-based
Mark each entry YES if its IC50 sits below 0.8 nM, and NO for all others.

| Compound | Group |
| --- | --- |
| COCCNc1nc(Oc2cccc3[nH]c(=O)c(N)nc23)cc(-c2ccc(C(F)(F)F)cc2)n1 | YES |
| COCCNc1nc(C(F)(F)F)ccc1-c1cc(Oc2cccc3[nH]c(=O)c(N)nc23)ncn1 | YES |
| COCCNc1nc(Oc2cccc3[nH]c(=O)c(N)nc23)cc(-c2ccc(C(F)(F)F)cc2N)n1 | NO |
| COC[C@H](C)Nc1nc(Oc2cccc3[nH]c(=O)c(N)nc23)cc(-c2ccc(C(F)(F)F)nc2N)n1 | NO |
| Nc1nc(Oc2cccc3[nH]c(=O)c(N)nc23)cc(-c2ccc(C(F)(F)F)cc2N)n1 | NO |
| CC(C)(C)CN1CCCCC1CNc1nc(Oc2cccc3[nH]c(=O)c(N)nc23)cc(-c2ccc(C(F)(F)F)cc2)n1 (stereo not drawn) | NO |
| Nc1nc2c(Oc3cc(-c4ccc(C(F)(F)F)nc4NCCN4CCOCC4)ncn3)cccc2[nH]c1=O | NO |
| COC[C@@H](C)Nc1nc(Oc2cccc3[nH]c(=O)c(N)nc23)cc(-c2ccc(C(F)(F)F)cc2)n1 | YES |
| CC(Nc1nc(Oc2cccc3[nH]c(=O)c(N)nc23)cc(-c2ccc(C(F)(F)F)cc2)n1)c1ccccn1 (stereo not drawn) | NO |
| Nc1nc2c(Oc3cc(-c4ccc(C(F)(F)F)nc4N[C@@H]4CCOC4)ncn3)cccc2[nH]c1=O | NO |
| CC(C)CN1CCCCC1CNc1nc(C(F)(F)F)ccc1-c1cc(Oc2cccc3[nH]c(=O)c(N)nc23)ncn1 (stereo not drawn) | NO |

----------
# Protocol details: Ratio of drug level in brain to plasma in Sprague-Dawley rat at 5 mg/kg, iv
# Type: ADME, organism-based
# Parameters: dose 5 mg/kg, route intravenous
Kp values for the molecules below.

| Molecule | Kp |
| --- | --- |
| CC(C)(C)NC(=O)Nc1cc(C(F)(F)F)ccc1-c1cc(Oc2cccc3[nH]c(=O)c(N)nc23)ncn1 | 0.04 |
| Nc1cc(C(F)(F)F)ccc1-c1cc(Oc2cccc3[nH]c(=O)c(N)nc23)ncn1 | 0.23 |
| COC[C@H](C)Nc1nc(Oc2cccc3[nH]c(=O)c(N)nc23)cc(-c2ccc(C(F)(F)F)nc2N)n1 | 0.04 |
| CC(=O)Nc1nc2c(Oc3cc(-c4ccc(C(F)(F)F)cc4)nc(N)n3)cccc2s1 | 0.44 |
| COC[C@H](C)Nc1nc(Oc2cccc3[nH]c(=O)c(N)nc23)cc(-c2ccc(C(F)(F)F)cc2N)n1 | 0.07 |
| CC(C)CN1CCCCC1CNc1nc(C(F)(F)F)ccc1-c1cc(Oc2cccc3[nH]c(=O)c(N)nc23)ncn1 (centres undefined) | 0.25 |
| CC(=O)Nc1nc2c(Oc3cc(-c4ccc(C(F)(F)F)cc4NC(=O)NC(C)(C)C)ncn3)cccc2s1 | 0.19 |
| CC(Nc1nc(Oc2cccc3[nH]c(=O)c(N)nc23)cc(-c2ccc(C(F)(F)F)cc2)n1)c1ccccn1 (centres undefined) | 0.04 |
| Nc1nc2c(Oc3cc(-c4ccc(C(F)(F)F)nc4N[C@@H]4CCOC4)ncn3)cccc2[nH]c1=O | 0.09 |
| Nc1nc2c(Oc3cc(-c4ccc(C(F)(F)F)cc4NC(=O)c4ccncc4)ncn3)cccc2[nH]c1=O | 0.07 |
| CC(O)CCNc1nc(Oc2cccc3[nH]c(=O)c(N)nc23)cc(-c2ccc(C(F)(F)F)cc2)n1 (centres undefined) | 0.03 |
| Nc1nc2c(Oc3cc(-c4ccc(C(F)(F)F)cc4)ncn3)cccc2[nH]c1=O | 0.4 |
| Nc1nc2c(Oc3cc(-c4ccc(C(F)(F)F)cc4NC(=O)c4ccccn4)ncn3)cccc2[nH]c1=O | 0.21 |
| Nc1nc(Oc2cccc3[nH]c(=O)c(N)nc23)cc(-c2ccc(C(F)(F)F)cc2N)n1 | 0.04 |
| Nc1nc2c(Oc3cc(-c4ccc(C(F)(F)F)nc4NCCN4CCOCC4)ncn3)cccc2[nH]c1=O | 0.04 |
| CC(C)(C)CN1CCCCC1CNc1nc(Oc2cccc3[nH]c(=O)c(N)nc23)cc(-c2ccc(C(F)(F)F)cc2)n1 (centres undefined) | 0.24 |
| COCCNc1nc(Oc2cccc3[nH]c(=O)c(N)nc23)cc(-c2ccc(C(F)(F)F)cc2)n1 | 0.05 |
| Nc1nc(C(F)(F)F)ccc1-c1cc(Oc2cccc3[nH]c(=O)c(N)nc23)ncn1 | 0.11 |
| COC[C@H](C)Nc1nc(Oc2cccc3[nH]c(=O)c(N)nc23)cc(-c2ccc(C(F)(F)F)cc2)n1 | 0.19 |
| Nc1nc(Oc2cccc3[nH]c(=O)c(N)nc23)cc(-c2ccc(C(F)(F)F)cc2)n1 | 0.07 |
| COC[C@@H](C)Nc1nc(Oc2cccc3[nH]c(=O)c(N)nc23)cc(-c2ccc(C(F)(F)F)cc2)n1 | 0.15 |
| CC(=O)Nc1nc2c(Oc3cc(-c4ccc(C(F)(F)F)cc4N)ncn3)cccc2s1 | 0.93 |
| COCCNc1nc(C(F)(F)F)ccc1-c1cc(Oc2cccc3[nH]c(=O)c(N)nc23)ncn1 | 0.04 |
| COCCNc1nc(Oc2cccc3[nH]c(=O)c(N)nc23)cc(-c2ccc(C(F)(F)F)cc2N)n1 | 0.1 |
